From: patent US9421204B2

- System: NL4-3L100I
- Procedure Details: Anti-HIV cytoprotection assay, drug resistant NL4-3 L100I
- Format: cell-based
- Condition Parameters: HIV-1 strain NL4-3L100I, CEM-SS cells
Endpoint: EC50 (nM)

molecule="Cc1cn([C@H]2C[C@H](N=[N+]=[N-])[C@@H](CO)O2)c(=O)[nH]c1=O [AZT, reference compound]" endpoint=EC50 reading_unit=nM result_number=6

====

// reported Therapeutic Index for each item listed
- Test system: HIV-1RF
- Procedure Details: Anti-HIV-1 cytoprotection assay in CEM-SS cells
- Format: cell-based
- Condition Parameters: CEM-SS/HIV-1RF
Endpoint: Therapeutic Index

structure_as_smiles=COCCOCCOCCNc1ccc2[nH]c(C(=O)N3CCN(c4ncccc4NC(C)C)CC3)cc2c1 endpoint="Therapeutic Index" result_number=212.67
structure_as_smiles=COCCOCCOCCOCCOCCOCCOCCOc1ccc2[nH]c(C(=O)N3CCN(c4ncccc4NC(C)C)CC3)cc2c1 endpoint="Therapeutic Index" result_number=76.1
structure_as_smiles=COCCOCCOCCOCCOCCOCCOCCOCCOc1ccc2[nH]c(C(=O)N3CCN(c4ncccc4NC(C)C)CC3)cc2c1 endpoint="Therapeutic Index" result_number=144.2
structure_as_smiles=COCCOCCOCCOCCOCCOCCOc1ccc2[nH]c(C(=O)N3CCN(c4ncccc4NC(C)C)CC3)cc2c1 endpoint="Therapeutic Index" result_number=26.7
structure_as_smiles=COCCOCCOCCOc1ccc2[nH]c(C(=O)N3CCN(c4ncccc4NC(C)C)CC3)cc2c1 endpoint="Therapeutic Index" result_number=499.0
structure_as_smiles=COCCNc1ccc2[nH]c(C(=O)N3CCN(c4ncccc4NC(C)C)CC3)cc2c1 endpoint="Therapeutic Index" result_number=1083.11

====

- Procedure Details: in vitro
- Format: in vitro ADME
- Condition Parameters: human, Caco-2, pH 7.4, Test 1; read-out: Efflux Ratio (B→A/A→B)
Endpoint: efflux ratio at 2 hours, 10 μM

molecule="COCCOCCOCCOCCOc1ccc2[nH]c(C(=O)N3CCN(c4ncccc4NC(C)C)CC3)cc2c1 [mPEG4-O-Delavirdine, 5-O-mPEG4-Delavirdine]" result_number=0.9
molecule="COCCOCCOCCOCCOCCOCCOc1ccc2[nH]c(C(=O)N3CCN(c4ncccc4NC(C)C)CC3)cc2c1 [mPEG6-O-Delavirdine, 5-O-mPEG6-Delavirdine]" result_number=2.1
molecule="COCCOCCOCCOCCOCCOCCOCCOc1ccc2[nH]c(C(=O)N3CCN(c4ncccc4NC(C)C)CC3)cc2c1 [mPEG7-O-Delavirdine, 5-O-mPEG7-Delavirdine]" result_number=2.6
molecule="COCCOCCOCCOc1ccc2[nH]c(C(=O)N3CCN(c4ncccc4NC(C)C)CC3)cc2c1 [mPEG3-O-Delavirdine, 5-O-mPEG3-Delavirdine]" result_number=0.9
molecule="COCCOCCOCCOCCOCCOc1ccc2[nH]c(C(=O)N3CCN(c4ncccc4NC(C)C)CC3)cc2c1 [mPEG5-O-Delavirdine, 5-O-mPEG5-Delavirdine]" result_number=1.3
molecule="COCCOCCOCCOCCOCCOCCOCCOCCOc1ccc2[nH]c(C(=O)N3CCN(c4ncccc4NC(C)C)CC3)cc2c1 [mPEG8-O-Delavirdine, 5-O-mPEG8-Delavirdine]" result_number=8.8

====

- Procedure Details: in vitro
- Format: in vitro ADME
- Condition Parameters: human, Caco-2, pH 7.4, Average Papp, A→B
Where a name gives a salt, the structure may show the parent alone.
Endpoint: Papp A→B at 2 hours, 10 μM (×10⁻⁶ cm/s)

compound="CC(C)Nc1cccnc1N1CCN(C(=O)c2cc3cc(NS(C)(=O)=O)ccc3[nH]2)CC1 [Delavirdine Mesylate, reference compound]" result_number=9.87

====

- System: NL4-3Y181C
- Procedure Details: Anti-HIV cytoprotection assay, drug resistant NL4-3 Y181C
- Format: cell-based
- Condition Parameters: Human immunodeficiency virus 1, CEM-SS, HIV-1 strain NL4-3Y181C, CEM-SS cells
// reported EC50 for each item listed
Endpoint: EC50

compound="CC(C)Nc1cccnc1N1CCN(C(=O)c2cc3cc(NS(C)(=O)=O)ccc3[nH]2)CC1 [Delavirdine, reference compound]" result="> 0.5 µM"
compound="Cc1ccnc2c1NC(=O)c1cccnc1N2C1CC1 [Nevirapine, reference compound]" result="> 10 µM"
compound=COCCOCCOCCOc1ccc2[nH]c(C(=O)N3CCN(c4ncccc4NC(C)C)CC3)cc2c1 result="> 5 µM"
compound=COCCOCCOCCOCCOc1ccc2[nH]c(C(=O)N3CCN(c4ncccc4NC(C)C)CC3)cc2c1 result="> 5 µM"
compound="Cc1cn([C@H]2C[C@H](N=[N+]=[N-])[C@@H](CO)O2)c(=O)[nH]c1=O [AZT, reference compound]" result="0.002 µM"
compound=COCCNc1ccc2[nH]c(C(=O)N3CCN(c4ncccc4NC(C)C)CC3)cc2c1 result="0.82 µM"
compound=COCCOCCNc1ccc2[nH]c(C(=O)N3CCN(c4ncccc4NC(C)C)CC3)cc2c1 result="> 1 µM"

====

- Procedure Details: in vitro
- Assay type: in vitro ADME
- Condition Parameters: human, Caco-2, pH 7.4, Test 2, 10 μM, 2 hours, pH 7.4; read-out: Average Papp, B→A
// reported Papp B→A at 2 hours, 10 μM for each item listed
Endpoint: Papp B→A at 2 hours, 10 μM (×10⁻⁶ cm/s)

compound="COCCOCCOCCOCCOCCOc1ccc2[nH]c(C(=O)N3CCN(c4ncccc4NC(C)C)CC3)cc2c1 [mPEG5-O-Delavirdine, 5-O-mPEG5-Delavirdine]" endpoint="Papp B→A at 2 hours, 10 μM" reading_unit="×10⁻⁶ cm/s" result_number=38.9
compound="COCCOCCOCCOc1ccc2[nH]c(C(=O)N3CCN(c4ncccc4NC(C)C)CC3)cc2c1 [mPEG3-O-Delavirdine, 5-O-mPEG3-Delavirdine]" endpoint="Papp B→A at 2 hours, 10 μM" reading_unit="×10⁻⁶ cm/s" result_number=29.1
compound="COCCOCCOCCOCCOCCOCCOCCOc1ccc2[nH]c(C(=O)N3CCN(c4ncccc4NC(C)C)CC3)cc2c1 [mPEG7-O-Delavirdine, 5-O-mPEG7-Delavirdine]" endpoint="Papp B→A at 2 hours, 10 μM" reading_unit="×10⁻⁶ cm/s" result_number=39.3
compound="COCCNc1ccc2[nH]c(C(=O)N3CCN(c4ncccc4NC(C)C)CC3)cc2c1 [5-mPEG1-NH-Delavirdine, 5-mPEG-NH-Delavirdine]" endpoint="Papp B→A at 2 hours, 10 μM" reading_unit="×10⁻⁶ cm/s" result_number=39.4
compound="COCCOCCNc1ccc2[nH]c(C(=O)N3CCN(c4ncccc4NC(C)C)CC3)cc2c1 [5-mPEG2-NH-Delavirdine]" endpoint="Papp B→A at 2 hours, 10 μM" reading_unit="×10⁻⁶ cm/s" result_number=41.1
compound="COCCOCCOCCNc1ccc2[nH]c(C(=O)N3CCN(c4ncccc4NC(C)C)CC3)cc2c1 [5-mPEG3-NH-Delavirdine]" endpoint="Papp B→A at 2 hours, 10 μM" reading_unit="×10⁻⁶ cm/s" result_number=41.8

====

- Procedure Details: Caco-2 permeability characterization (plate certification)
- Condition Parameters: human, Caco-2, Efflux Ratio, Test 2, Passage Number 67
Endpoint: efflux ratio

compound="C[C@H]1O[C@@H](O[C@H]2[C@@H](O)C[C@H](O[C@H]3[C@@H](O)C[C@H](O[C@H]4CC[C@@]5(C)[C@H](CC[C@@H]6[C@@H]5C[C@@H](O)[C@]5(C)[C@@H](C7=CC(=O)OC7)CC[C@]65O)C4)O[C@@H]3C)O[C@@H]2C)C[C@H](O)[C@@H]1O [Digoxin]" result=18

====

- Procedure Details: in vitro
- Format: in vitro ADME
- Condition Parameters: human, Caco-2, pH 7.4, Average Papp, B→A
Where a name gives a salt, the structure may show the parent alone.
Endpoint: Papp B→A at 2 hours, 10 μM (×10⁻⁶ cm/s)

compound="CC(C)Nc1cccnc1N1CCN(C(=O)c2cc3cc(NS(C)(=O)=O)ccc3[nH]2)CC1 [Delavirdine Mesylate, reference compound]" endpoint="Papp B→A at 2 hours, 10 μM" reading_unit="×10⁻⁶ cm/s" result_number=67.9

====

- Procedure Details: Toxicity XTT in CEM-SS cells (drug resistant strain assay)
- Type: cell-based
- Condition Parameters: human, CEM-SS cells, run with HIV-1 strain NL4-3Y181C; read-out: TC50 (the source's name)
Endpoint: CC50

compound="COCCOCCNc1ccc2[nH]c(C(=O)N3CCN(c4ncccc4NC(C)C)CC3)cc2c1 [5-mPEG2-NH-Delavirdine]" result="> 1000 nM"
compound="COCCOCCOCCOCCOc1ccc2[nH]c(C(=O)N3CCN(c4ncccc4NC(C)C)CC3)cc2c1 [mPEG4-O-Delavirdine, 5-O-mPEG4-Delavirdine]" result="> 5000 nM"
compound="COCCOCCOCCOc1ccc2[nH]c(C(=O)N3CCN(c4ncccc4NC(C)C)CC3)cc2c1 [mPEG3-O-Delavirdine, 5-O-mPEG3-Delavirdine]" result="> 5000 nM"
compound="CC(C)Nc1cccnc1N1CCN(C(=O)c2cc3cc(NS(C)(=O)=O)ccc3[nH]2)CC1 [Delavirdine, reference compound]" result="> 500 nM"
compound="COCCNc1ccc2[nH]c(C(=O)N3CCN(c4ncccc4NC(C)C)CC3)cc2c1 [5-mPEG1-NH-Delavirdine, 5-mPEG-NH-Delavirdine]" result="> 1000 nM"
compound="Cc1ccnc2c1NC(=O)c1cccnc1N2C1CC1 [Nevirapine, reference compound]" result="> 10000 nM"
